target: human serotonin transporter (Homo sapiens (Human), UniProt P31645); assay: Human SERT (serotonin transporter) uptake assay; type: cell-based; details: read-out: hSERT Ki
Sequence (P31645 whole entry): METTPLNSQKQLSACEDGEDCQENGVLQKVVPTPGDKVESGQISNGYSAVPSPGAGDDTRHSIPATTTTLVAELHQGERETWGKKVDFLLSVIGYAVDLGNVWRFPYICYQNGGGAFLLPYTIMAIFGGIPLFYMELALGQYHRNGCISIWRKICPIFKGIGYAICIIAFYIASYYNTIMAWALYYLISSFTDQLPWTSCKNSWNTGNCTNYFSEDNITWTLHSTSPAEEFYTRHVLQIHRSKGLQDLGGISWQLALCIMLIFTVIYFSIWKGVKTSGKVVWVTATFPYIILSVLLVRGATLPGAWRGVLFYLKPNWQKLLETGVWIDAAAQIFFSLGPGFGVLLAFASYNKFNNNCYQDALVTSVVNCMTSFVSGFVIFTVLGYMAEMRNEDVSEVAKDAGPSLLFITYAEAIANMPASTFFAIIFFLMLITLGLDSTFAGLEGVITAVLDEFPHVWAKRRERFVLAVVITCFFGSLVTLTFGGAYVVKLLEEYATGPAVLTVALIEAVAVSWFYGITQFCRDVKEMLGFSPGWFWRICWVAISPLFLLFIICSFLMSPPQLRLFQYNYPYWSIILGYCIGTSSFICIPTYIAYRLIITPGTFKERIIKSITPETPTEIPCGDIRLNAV
property_label: Ki (nM)

> print(dat)
                                    compound  property.label  measured.result
 1  CNC[C@H](Cc1ccccc1O)c1ccc2ccccc2c1 [Compound 140]              Ki             28.3
 2  CNCC(c1ccc(Cl)c(Cl)c1)[C@H](O)c1ccccc1 (mixture of isomers) [Compound 53]              Ki             17.3
 3  CNC[C@H](c1ccc(Cl)c(Cl)c1)[C@H](O)c1cccc(OC)n1 [Compound 167]              Ki             18.8
 4  CNC[C@H](c1ccc(Cl)c(Cl)c1)[C@H](O)c1cccc([N+](=O)[O-])c1 [Compound 102]              Ki             86.2
 5  CNC[C@H](c1ccc2ccccc2c1)[C@@H](O)c1cc(F)cc(F)c1 [Compound 141]              Ki              296
 6  CNC[C@@H](c1ccc2ccccc2c1)[C@@H](OCC(N)=O)c1ccccc1 [Compound 117]              Ki              796
 7  CNC[C@H](c1ccc2ccccc2c1)[C@H](OCC(=O)NCCOC)c1ccccc1 [Compound 51]              Ki              2.6
 8  CNCC(c1ccc2ccccc2c1)[C@@H](O)c1ccc(Cl)nc1 (some centres unmarked) [Compound 169]              Ki              268
 9  CNC[C@@H](c1ccc(Cl)c(Cl)c1)[C@@H](O)c1cccc(N2CCOCC2)c1 [Compound 125]              Ki              725
10  CNC[C@@H](c1ccc2ccccc2c1)[C@H](O)c1cc(F)cc(F)c1 [Compound 142]              Ki              208

P: NC[C@@H](c1ccc2ccccc2c1)[C@@H](O)c1ccc(Cl)nc1 [Compound 126]
Q: CNC[C@H](Cc1cccnc1)c1ccc(Cl)c(Cl)c1 [Compound 115]
R: c1ccc([C@@H]2OCCNC[C@H]2c2ccc3ccccc3c2)cc1 [Compound 64]
S: CNC[C@H](c1ccc2ccccc2c1)[C@H](OCC(=O)Nc1ccccc1)c1ccccc1 [Compound 45]
T: CCc1cccc([C@@H](O)[C@H](CNC)c2ccc(Cl)c(Cl)c2)c1 [Compound 159]
Input: In this exercise, place the 5 compounds in ascending sequence of their recorded Ki. Your task in answering is to list the labels in the requested order.
Output: S, R, T, P, Q
(S: 2.4 nM, R: 11.3 nM, T: 69.5 nM, P: 107 nM, Q: 642 nM)

a: CNC[C@H](c1ccc2ccccc2c1)[C@H](O)c1cc(F)cc(F)c1 (single isomer, unassigned) [Compound 37]
b: CNC[C@H](c1ccc2ccccc2c1)[C@H](OCc1cccn(C)c1=O)c1ccccc1 [Compound 31]
Input: Hi, I'm comparing two records. Which one has the lower Ki, a or b ? When you have decided, please share the label of that item.
Output: b
